The measurements presented in this section are drawn from PubChem BioAssay (NCI).

Test system: UO-31 renal
Assay: NCI-60 one-dose screen, 48 h (100 = growth as untreated, 0 = no growth, -100 = all killed)
Conditions: 10 µM unless noted
This is part of a sample that, as a whole, favours compounds with a hit. Of some 83,000 tested, about 20% had one in any assay.
Param label: returns 1 when growth < 60%, returns 0 otherwise, including exact equality.

{"compound": "CSc1ccccc1NC(=O)c1ccc2nn(/C(C#N)=C/c3ccccn3)nc2c1", "system under test": "UO-31 renal", "assigned category": 1}
{"compound": "COc1ccc2c(c1)c(-c1cc3nc(-c4cn(C)c5ncccc45)cc(N)n3n1)cn2C", "system under test": "UO-31 renal", "assigned category": 1}
{"compound": "Cc1ccc2c(N)c(C(=O)Nc3ccc(OC(F)(F)F)cc3)sc2n1", "system under test": "UO-31 renal", "assigned category": 1}
{"compound": "COc1ccc(NC(=O)[C@@H](N)Cc2ccccc2)cc1C(=O)Nc1cccc(C2CC(=O)c3c(cc(OC)c(OC)c3OC)O2)c1 (stereo partly drawn)", "system under test": "UO-31 renal", "assigned category": 1}
{"compound": "COc1ccc(N2N=C(c3ccc4c(c3)OCO4)CC2c2cccc(NC(=O)CCCNS(=O)(=O)c3ccc(F)cc3)c2)cc1 (stereo not drawn)", "system under test": "UO-31 renal", "assigned category": 1}
{"compound": "Cn1cc(-c2nnc(N)nc2-c2c[nH]c3ccc(Br)cc23)c2cc(Br)cnc21", "system under test": "UO-31 renal", "assigned category": 1}
{"compound": "COc1cc2oc(-c3cccc(C(=O)Nc4ccc(Cl)cc4)c3)cc(=O)c2c(OCCNC(=O)[C@H](CO)NC(=O)OC(C)(C)C)c1OC", "system under test": "UO-31 renal", "assigned category": 1}
{"compound": "Cc1occc1C(=O)NN1C(=O)/C(=C/C=C/c2ccc([N+](=O)[O-])o2)SC1=S", "system under test": "UO-31 renal", "assigned category": 1}
{"compound": "COc1cc2c(c(OC)c1OC)C(=O)CC(c1cccc(NC(=O)c3cccc([N+](=O)[O-])c3)c1)O2 (stereo not drawn)", "system under test": "UO-31 renal", "assigned category": 1}
{"compound": "COc1ccc(C2CC(c3ccc(S(=O)(=O)NCCNc4nc(Nc5ccc(F)cc5)nc(N(C)C)n4)cc3)=Nc3c(N)nc(N)nc3N2)cc1 (stereo not drawn)", "system under test": "UO-31 renal", "assigned category": 0}
{"compound": "O=C(CN1C(=O)/C(=C/c2ccccc2Cl)SC1=S)N1CCOCC1", "system under test": "UO-31 renal", "assigned category": 0}
{"compound": "CCCCSc1nc(Nc2ccc(S(N)(=O)=O)cc2)c(C#N)c(-c2cc(OC)c(OC)c(OC)c2)n1", "system under test": "UO-31 renal", "assigned category": 1}
{"compound": "Cc1ccc(C(SCCNCc2cc(N(C)C)ccn2)(c2ccccc2)c2ccccc2)cc1", "system under test": "UO-31 renal", "assigned category": 1}
{"compound": "CC(C)Sc1nc(NCCc2c[nH]c3ccccc23)c(C#N)c(-c2ccccc2)n1", "system under test": "UO-31 renal", "assigned category": 1}
{"compound": "Cn1cc(-c2cc3nc(-c4c[nH]c5ccc(Cl)cc45)cc(N)n3n2)c2ccccc21", "system under test": "UO-31 renal", "assigned category": 1}
{"compound": "COc1cc2c(c(OC)c1OC)C(=O)CC(c1cccc(NC(=O)[C@@H](N)CC(C)C)c1)O2 (stereo partly drawn)", "system under test": "UO-31 renal", "assigned category": 0}
